Biological target: T1, glucagon receptor present in the plasma membranes isolated from rat liver (rat, UniProt P30082 27-485)
T1 construct: whole, on cells
T1 sequence (P30082 27-485): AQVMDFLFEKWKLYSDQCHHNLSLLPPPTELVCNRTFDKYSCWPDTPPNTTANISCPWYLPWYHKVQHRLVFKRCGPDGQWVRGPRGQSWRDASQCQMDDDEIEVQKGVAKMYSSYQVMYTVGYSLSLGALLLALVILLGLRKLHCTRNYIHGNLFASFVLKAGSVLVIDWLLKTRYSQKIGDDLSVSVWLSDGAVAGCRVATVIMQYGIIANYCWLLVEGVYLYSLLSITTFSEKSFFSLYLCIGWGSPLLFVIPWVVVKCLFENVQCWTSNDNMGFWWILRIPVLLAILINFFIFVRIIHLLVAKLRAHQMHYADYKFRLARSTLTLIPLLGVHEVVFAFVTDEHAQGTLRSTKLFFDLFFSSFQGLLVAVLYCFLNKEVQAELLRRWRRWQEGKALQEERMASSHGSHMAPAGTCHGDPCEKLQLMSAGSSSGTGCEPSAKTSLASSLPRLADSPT
Experiment: 125I-glucagon displacement, rat liver plasma membranes
pIC50: −log10 of the molar value. Ends that are not written are not given here. * marks the point of attachment. Palmitoyl = CCCCCCCCCCCCCCCC(=O)*
class 1 means recorded pIC50 is 7 or above; class 0 means it is below 7.

Answered examples (3):
>>> label_value("HSQGTFTSDYARYLDARRAREFIAWLVRGRGK [G85]")
"class 1"
>>> label_value("HSQGTFTSDYAKYLDARRAKEFIAWLVKCRG [G75]")
"class 1"
>>> label_value("HSQGTFTSDYARYLDARRAKEFIAWLVRGRG [G82]")
"class 1"

Now consider a different binder.
Request: Quick check, pIC50 >= 7? HSQGTFTSDYAKYLDARRAKEFIAWLVKGRK(Palmitoyl) [G88]
Response: class 0
